This collection of values is drawn from patent US6809094B2.

Exercise: state measured melting point for each of the compounds provided.
Give bare numbers, in °C.

O=[N+]([O-])c1ccc2oc(N3CCN4CCC3CC4)nc2c1: 240.2
O=[N+]([O-])c1ccc2nc(N3CCN4CCC3CC4)oc2c1: 296.4
O=[N+]([O-])c1cccc2oc(N3CCN4CCC3CC4)nc12: 232.1
c1ccc2c(c1)ccc1oc(N3CCN4CCC3CC4)nc12: 167.2
c1ccc(-c2ccc3nc(N4CCN5CCC4CC5)oc3c2)cc1: 281.3

Kindly consider the entry below.
Prompt line: Reported melting point for "O=[N+]([O-])c1cc2nc(N3CCN4CCC3CC4)oc2cc1Cl" : what is it?
Response line: 242.3
